The reported measurements were obtained from patent US12077503B2.

System: redroot pigweed (Amaranthus retroflexus)
Assay: Test G Pre-Emergence Protocol
Format: in vivo
Conditions: Amaranthus retroflexus, pre-emergence, 312 h, 250 g ai/ha, evaluated after 13 days, read-out: Pigweed, Redroot damage rating (100=total damage to plant; 0=no damage to plant)
Excerpt: Seeds of corn (Zea mays), giant foxtail (Setaria faberi), barnyardgrass (Echinochloa crus-galli), ivy-leaved morning glory (Ipomoea hederacea), redroot pigweed (Amaranthus retroflexus) and velvetleaf (Abutilon theophrasti) were sown in standard soil in pots. […]
measurementName: pest or weed control at 250 g/ha

# query: pest or weed control at 250 g/ha of entry COCCOc1cccc([C@@H]2CN(C)C(=O)[C@H]2C(=O)Nc2cccc(F)c2C)c1 (racemic)
0%

# query: pest or weed control at 250 g/ha of entry CN1C[C@H](c2ccc(C(F)(F)F)cc2)[C@@H](C(=O)Nc2nccc(C(F)(F)F)c2F)C1=O (racemic)
0%

# query: pest or weed control at 250 g/ha of entry Cc1cnc(NC(=O)[C@@H]2C(=O)N(C)C[C@H]2c2ccc(C(F)(F)F)cc2)nn1 (racemic)
0%

# query: pest or weed control at 250 g/ha of entry CN1C[C@@H](c2ccc(C(F)(F)F)cc2)[C@H](C(=O)Nc2ccc(F)c(F)c2Cl)C1=O (racemic)
60%

# query: pest or weed control at 250 g/ha of entry CN1C[C@H](c2cccc(C(F)(F)F)c2)[C@@H](C(=O)Nc2cnccc2[S+](C)[O-])C1=O (mixture of isomers)
0%

# query: pest or weed control at 250 g/ha of entry CN1C[C@H](c2ccc(Cl)cc2)[C@@H](C(=O)Nc2ccc(F)nc2F)C1=O
80%

# query: pest or weed control at 250 g/ha of entry CN1C[C@@H](c2ccnc(C(F)(F)F)c2)[C@H](C(=O)Nc2cccc(F)c2F)C1=O (racemic)
20%

----------
Tested on: ivy-leaved morning glory (Ipomoea hederacea)
Assay: Test G Pre-Emergence Protocol
Assay type: in vivo
Details: Ipomoea, pre-emergence, 312 h, 62.5 g ai/ha, evaluated after 13 days, 100=total damage to plant, 0=no damage to plant, read-out: Morningglory, Ivy-leaved damage rating
measurementName: pest or weed control at 62.5 g/ha

# query: pest or weed control at 62.5 g/ha of entry CCS(=O)(=O)c1ccccc1NC(=O)[C@H]1C(=O)N(C)C[C@@H]1c1ccc(C(F)(F)F)cc1 (racemic)
0%

# query: pest or weed control at 62.5 g/ha of entry COc1c(C)cc(C2CN(C)C(=O)C2C(=O)Nc2cccc(F)c2F)cc1C (stereo not shown)
10%

# query: pest or weed control at 62.5 g/ha of entry Cc1nc(F)ccc1NC(=O)[C@@H]1C(=O)N(C)C[C@H]1c1ccc(C(F)(F)F)cc1 (racemic)
0%

# query: pest or weed control at 62.5 g/ha of entry Cc1c(F)cccc1NC(=O)[C@@H]1C(=O)N(C)C[C@H]1c1cccc(OCC(F)(F)F)c1 (racemic)
0%

----------
Tested on: barnyardgrass (Echinochloa crus-galli)
Assay: Test A preemergence
Type: in vivo
Conditions: Echinochloa crus-galli, pre-emergence, 240 h, 125 g ai/ha, preemergence; visual injury rating, 0 to 100 scale where 0 is no effect and 100 is complete control; approximately 10 d; read-out: Barnyardgrass plant response rating
For each of the compounds below, state its pest or weed control at 125 g/ha.
Quick reminder: number only, in %, skip the unit.

# query: pest or weed control at 125 g/ha of entry CSc1ccccc1NC(=O)[C@H]1C(=O)NC[C@@H]1c1ccc(F)c(C#N)c1
0

# query: pest or weed control at 125 g/ha of entry COc1cc([C@H]2CN(C)C(=O)[C@@H]2C(=O)Nc2ccccc2F)cc(OC)c1OC
90

# query: pest or weed control at 125 g/ha of entry CN1C[C@H](c2ccc(F)c(C#N)c2)[C@@H](C(=O)Nc2ccccc2F)C1=O
100

# query: pest or weed control at 125 g/ha of entry Cc1ccc([C@H]2CNC(=O)[C@@H]2C(=O)Nc2c(F)cccc2F)cc1C
70

# query: pest or weed control at 125 g/ha of entry CN1C[C@H](c2ccc3c(c2)OC(F)(F)O3)[C@@H](C(=O)Nc2ccc(F)c(F)c2F)C1=O
90

# query: pest or weed control at 125 g/ha of entry Cc1c(F)cccc1NC(=O)[C@H]1C(=O)N(C)C[C@@H]1c1ccc(OC(F)F)cc1
100

# query: pest or weed control at 125 g/ha of entry CN1C[C@H](c2ccc(Cl)c(F)c2)[C@@H](C(=O)Nc2cccc(F)c2F)C1=O
90

# query: pest or weed control at 125 g/ha of entry O=C(Nc1ccccc1F)C1C(=O)N(CC(F)F)CC1c1cccc(C(F)(F)F)c1 (centres unmarked)
20

# query: pest or weed control at 125 g/ha of entry COc1cc(C(F)(F)F)ccc1[C@H]1CN(C)C(=O)[C@@H]1C(=O)Nc1cccc(F)c1C
90

# query: pest or weed control at 125 g/ha of entry Cc1c(F)cccc1NC(=O)[C@H]1C(=O)NC[C@@H]1c1cccc2c1OC(F)(F)O2
70

# query: pest or weed control at 125 g/ha of entry Cc1ccc([C@H]2CN(C)C(=O)[C@@H]2C(=O)Nc2c(F)c(F)c(F)c(F)c2F)cc1
50

# query: pest or weed control at 125 g/ha of entry Cc1c(F)cccc1NC(=O)[C@H]1C(=O)N(C)C[C@@H]1c1ccc(F)c(Br)c1
100

# query: pest or weed control at 125 g/ha of entry CN1C[C@H](c2ccc(F)c(Br)c2)[C@@H](C(=O)Nc2cccc(F)c2F)C1=O
100

# query: pest or weed control at 125 g/ha of entry CSc1ccccc1NC(=O)[C@H]1C(=O)N(C)C[C@@H]1c1cccc(C)c1
90

# query: pest or weed control at 125 g/ha of entry CN1C[C@H](c2cc(F)cc(C(F)(F)F)c2)[C@@H](C(=O)Nc2cccc(F)c2F)C1=O
90

# query: pest or weed control at 125 g/ha of entry Cc1ccc([C@H]2CN(C)C(=O)[C@@H]2C(=O)Nc2cccc(F)c2C#N)cc1
100

# query: pest or weed control at 125 g/ha of entry CN1C[C@H](c2csc3c2CCCC3)[C@@H](C(=O)Nc2ccccc2F)C1=O
100
